Data provenance: patent US20150089682A1

Target: mixture of P197S and W574L ALS enzymes (Arabidopsis thaliana)
Construct: crude E. coli extract was used
Format: biochemical
Conditions: relative to WT; calculated
Parameter: Resistance Factor P197S & W574L. Scope: all listed entries.

# compound, Resistance Factor P197S & W574L
measured = [
    ("COC(=O)c1ccccc1S(=O)(=O)NC(=O)Nc1nc(C)nc(OC)n1", 251),
    ("COc1cc(OC)nc(NC(=O)NS(=O)(=O)c2ncccc2C(F)(F)F)n1", 794),
    ("COc1ncc(F)c2nc(S(=O)(=O)Nc3c(F)cccc3F)nn12", 200),
    ("COC(=O)c1ccc(CNS(C)(=O)=O)cc1S(=O)(=O)NC(=O)Nc1nc(OC)cc(OC)n1", 794),
    ("COc1cc(OC)nc(Oc2cccc(Oc3nc(OC)cc(OC)n3)c2C(=O)O)n1 [Bispyribac-sodium, bispyribac-sodium]", 40),
    ("COc1cc(OC)n2nc(NS(=O)(=O)c3c(C(F)(F)F)ccnc3OC)nc2n1", 6310),
    ("COc1cc(OC)nc(NC(=O)NS(=O)(=O)N(C)S(C)(=O)=O)n1", ">501"),
    ("COC(=O)c1csc(C)c1S(=O)(=O)NC(=O)n1nc(OC)n(C)c1=O", 1259),
    ("COc1cc(OC)nc(NC(=O)NS(=O)(=O)c2cc(NC=O)ccc2C(=O)N(C)C)n1", 398),
]

----------
Biological target: Arabidopsis thaliana wild-type ALS (Arabidopsis thaliana, UniProt P17597, E575Q)
Construct: vector-encoded N-terminal fusion of pET-32a(+) (Trx/His/S tag by own knowledge); made in house; host or cells: Escherichia coli AD494
Assay: biochemical
Settings: measured; crude extract of E. coli expressed enzyme; read-out: pI50 WT (converted)
Protocol: Bacteria were grown at 37° C. in LB-medium containing 100 mg/1 carbenicillin and 25 mg/1 canamycin, induced with 1 mM isopropyl-β-D-thiogalactopyranoside at an OD600 of 0.6, cultivated for 16 hours at 18° C. and harvested by centrifugation. Bacterial pellets were resusupended in 100 mM sodium phosphate buffer pH 7.0 containing 0.1 mM thiamine-pyrophosphate, 1 mM MgCl2, and 1 μM FAD at a concentration of 1 gram wet weight per 25 ml of buffer and disrupted by sonification. […]
observation_type: IC50 (nM)

# compound, system_under_test, observation_type, value
measured = [
    ("COc1cc(OC)nc(Oc2cccc(Oc3nc(OC)cc(OC)n3)c2C(=O)O)n1 [Bispyribac-sodium, bispyribac-sodium]", "Arabidopsis thaliana wild-type ALS (Arabidopsis thaliana, UniProt P17597, E575Q)", "IC50", 20),
    ("COCc1cnc(C2=NC(C)(C(C)C)C(=O)N2)c(C(=O)O)c1 (stereo not shown) [Imazamox, imazamox]", "Arabidopsis thaliana wild-type ALS (Arabidopsis thaliana, UniProt P17597, E575Q)", "IC50", 3980),
    ("COc1cc(OC)nc(NC(=O)NS(=O)(=O)c2ncccc2C(=O)N(C)C)n1 [Nicosulfuron, nicosulfuron]", "Arabidopsis thaliana wild-type ALS (Arabidopsis thaliana, UniProt P17597, E575Q)", "IC50", 126),
    ("CCS(=O)(=O)c1nc2ccccn2c1S(=O)(=O)NC(=O)Nc1nc(OC)cc(OC)n1 [Sulfosulfuron, sulfosulfuron]", "Arabidopsis thaliana wild-type ALS (Arabidopsis thaliana, UniProt P17597, E575Q)", "IC50", 25.1),
    ("COC(=O)c1sccc1S(=O)(=O)NC(=O)Nc1nc(C)nc(OC)n1 [Thifensulfuron-Methyl, thifensulfuron-methyl]", "Arabidopsis thaliana wild-type ALS (Arabidopsis thaliana, UniProt P17597, E575Q)", "IC50", 39.8),
    ("COc1cc(OC)nc(NC(=O)NS(=O)(=O)c2ncccc2C(F)(F)F)n1 [Flazasulfuron, flazasulfuron]", "Arabidopsis thaliana wild-type ALS (Arabidopsis thaliana, UniProt P17597, E575Q)", "IC50", 0.794),
    ("COc1cc(OC)nc(NC(=O)NS(=O)(=O)c2cc(NC=O)ccc2C(=O)N(C)C)n1 [Foramsulfuron, foramsulfuron]", "Arabidopsis thaliana wild-type ALS (Arabidopsis thaliana, UniProt P17597, E575Q)", "IC50", 6.31),
    ("COc1cc(OC)n2nc(S(=O)(=O)Nc3c(Cl)ccc(C)c3Cl)nc2n1 [Metosulam, metosulam]", "Arabidopsis thaliana wild-type ALS (Arabidopsis thaliana, UniProt P17597, E575Q)", "IC50", 2.51),
    ("CCS(=O)(=O)c1cccnc1S(=O)(=O)NC(=O)Nc1nc(OC)cc(OC)n1 [Rimsulfuron, rimsulfuron]", "Arabidopsis thaliana wild-type ALS (Arabidopsis thaliana, UniProt P17597, E575Q)", "IC50", 31.6),
    ("COc1cc(OC)nc(NC(=O)NS(=O)(=O)N(C)S(C)(=O)=O)n1 [Amidosulfuron, amidosulfuron]", "Arabidopsis thaliana wild-type ALS (Arabidopsis thaliana, UniProt P17597, E575Q)", "IC50", 200),
]

----------
Molecular target: mixture of S653N and W574L ALS enzymes (Arabidopsis thaliana, UniProt P17597)
Construct: crude E. coli extract was used
Assay type: biochemical
Conditions: relative to WT; calculated

# compound, Resistance Factor S653N & W574L
measured = [
    ("CCS(=O)(=O)c1cccnc1S(=O)(=O)NC(=O)Nc1nc(OC)cc(OC)n1", 16),
    ("COC(=O)c1csc(C)c1S(=O)(=O)NC(=O)n1nc(OC)n(C)c1=O", 316),
    ("CCCOc1nn(C(=O)[N-]S(=O)(=O)c2ccccc2C(=O)OC)c(=O)n1C.[Na+] [Propoxycarbazone, propoxycarbazone-sodium]", 100),
    ("COc1cc(OC)n2nc(S(=O)(=O)Nc3c(Cl)ccc(C)c3Cl)nc2n1", 158),
    ("COc1cc(OC)nc(Oc2cccc(Oc3nc(OC)cc(OC)n3)c2C(=O)O)n1 [Bispyribac-sodium, bispyribac-sodium]", 79),
    ("COc1cc(OC)nc(NC(=O)NS(=O)(=O)N(C)S(C)(=O)=O)n1", 13),
    ("COc1cc(OC)n2nc(NS(=O)(=O)c3c(C(F)(F)F)ccnc3OC)nc2n1", 1995),
    ("CCS(=O)(=O)c1nc2ccccn2c1S(=O)(=O)NC(=O)Nc1nc(OC)cc(OC)n1", 158),
    ("COc1cc(OC)nc(NC(=O)NS(=O)(=O)c2ncccc2C(=O)N(C)C)n1", 398),
]

----------
Parameter: IC50. Scope: all listed entries.
Molecular target: Arabidopsis thaliana W574L-mutant ALS (Arabidopsis thaliana, UniProt P17597, E575Q/W574L)
Construct: vector-encoded N-terminal fusion of pET-32a(+) (Trx/His/S tag by own knowledge); made in house; host or cells: Escherichia coli AD494
Test: biochemical
Settings: measured; crude extract of E. coli expressed enzyme; read-out: pI50 W574L (converted)
observation_type: IC50 (µM)

# compound, readout_unit, relation, value
measured = [
    ("COc1cc(OC)nc(NC(=O)NS(=O)(=O)c2ncccc2C(F)(F)F)n1", "µM", "=", 3.16),
    ("COc1cc(OC)nc(Oc2cccc(Oc3nc(OC)cc(OC)n3)c2C(=O)O)n1 [Bispyribac-sodium, bispyribac-sodium]", "µM", "=", 7.94),
    ("COc1cc(OC)nc(NC(=O)NS(=O)(=O)N(C)S(C)(=O)=O)n1", "µM", ">", 100),
    ("COCc1cnc(C2=NC(C)(C(C)C)C(=O)N2)c(C(=O)O)c1 (stereo not shown)", "µM", ">", 100),
    ("COC(=O)c1sccc1S(=O)(=O)NC(=O)Nc1nc(C)nc(OC)n1", "µM", "=", 63.1),
    ("COc1cc(OC)nc(NC(=O)NS(=O)(=O)c2ncccc2C(=O)N(C)C)n1", "µM", ">", 100),
    ("COc1cc(OC)nc(NC(=O)NS(=O)(=O)c2cc(NC=O)ccc2C(=O)N(C)C)n1", "µM", "=", 50.1),
]

----------
Target: Arabidopsis thaliana P197S-mutant ALS (Arabidopsis thaliana, UniProt P17597, E575Q/P197S)
Construct: vector-encoded N-terminal fusion of pET-32a(+) (Trx/His/S tag by own knowledge); made in house; host or cells: Escherichia coli AD494
Assay: biochemical
Details: relative to WT; from measured pI50

# smiles_structure, Resistance Factor P197S
records = [
    ("COc1cc(OC)nc(NC(=O)NS(=O)(=O)c2cc(NC=O)ccc2C(=O)N(C)C)n1", 16),
    ("COc1cc(OC)nc(NC(=O)NS(=O)(=O)c2ncccc2C(F)(F)F)n1", 126),
    ("CCS(=O)(=O)c1nc2ccccn2c1S(=O)(=O)NC(=O)Nc1nc(OC)cc(OC)n1", 1585),
    ("COc1cc(OC)n2nc(NS(=O)(=O)c3c(C(F)(F)F)ccnc3OC)nc2n1", 251),
    ("COc1cc(OC)nc(NC(=O)NS(=O)(=O)c2ncccc2C(=O)N(C)C)n1", 8),
    ("COc1cc(OC)n2nc(S(=O)(=O)Nc3c(Cl)ccc(C)c3Cl)nc2n1", 631),
    ("CCS(=O)(=O)c1cccnc1S(=O)(=O)NC(=O)Nc1nc(OC)cc(OC)n1", 13),
]
